molecular target: Cel-AVR-14B/GLC-2 (Caenorhabditis elegans, UniProt Q17328+Q17369); assay: two-electrode voltage clamp, Xenopus oocytes
Sequence (Q17369 22-430): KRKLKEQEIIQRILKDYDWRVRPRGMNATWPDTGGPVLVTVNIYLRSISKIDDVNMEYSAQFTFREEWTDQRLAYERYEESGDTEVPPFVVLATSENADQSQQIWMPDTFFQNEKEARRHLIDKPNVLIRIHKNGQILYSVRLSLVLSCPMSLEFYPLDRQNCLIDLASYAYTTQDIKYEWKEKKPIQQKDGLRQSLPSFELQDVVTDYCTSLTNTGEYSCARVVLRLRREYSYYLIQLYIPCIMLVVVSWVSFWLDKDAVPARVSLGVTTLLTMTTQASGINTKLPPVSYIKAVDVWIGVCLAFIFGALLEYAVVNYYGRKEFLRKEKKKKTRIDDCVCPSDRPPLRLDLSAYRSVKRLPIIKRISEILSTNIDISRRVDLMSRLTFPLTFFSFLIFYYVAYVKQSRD
Sequence (Q17328 23-434): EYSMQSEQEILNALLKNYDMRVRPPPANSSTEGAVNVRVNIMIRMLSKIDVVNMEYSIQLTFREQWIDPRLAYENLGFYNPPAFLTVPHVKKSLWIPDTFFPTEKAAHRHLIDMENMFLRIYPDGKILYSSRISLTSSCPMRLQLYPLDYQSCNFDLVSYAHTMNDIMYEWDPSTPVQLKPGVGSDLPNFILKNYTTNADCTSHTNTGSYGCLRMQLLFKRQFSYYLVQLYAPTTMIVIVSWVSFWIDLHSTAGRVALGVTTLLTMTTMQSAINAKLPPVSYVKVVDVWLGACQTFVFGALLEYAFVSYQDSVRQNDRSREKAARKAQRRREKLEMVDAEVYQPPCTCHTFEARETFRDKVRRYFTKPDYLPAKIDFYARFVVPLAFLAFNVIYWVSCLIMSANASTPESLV
pEC50: −log10 of the molar value.

{"columns": ["compound", "pEC50"],
 "data": [
  ["N[C@@H](CCC(=O)O)C(=O)O [glutamate]", 4.71]
]}

----------
Target: Pun-AVR-14B/GLC-2 (Parascaris univalens, UniProt A0A894K7G1+A0A894KE58)
Sequence (A0A894K7G1 19-428): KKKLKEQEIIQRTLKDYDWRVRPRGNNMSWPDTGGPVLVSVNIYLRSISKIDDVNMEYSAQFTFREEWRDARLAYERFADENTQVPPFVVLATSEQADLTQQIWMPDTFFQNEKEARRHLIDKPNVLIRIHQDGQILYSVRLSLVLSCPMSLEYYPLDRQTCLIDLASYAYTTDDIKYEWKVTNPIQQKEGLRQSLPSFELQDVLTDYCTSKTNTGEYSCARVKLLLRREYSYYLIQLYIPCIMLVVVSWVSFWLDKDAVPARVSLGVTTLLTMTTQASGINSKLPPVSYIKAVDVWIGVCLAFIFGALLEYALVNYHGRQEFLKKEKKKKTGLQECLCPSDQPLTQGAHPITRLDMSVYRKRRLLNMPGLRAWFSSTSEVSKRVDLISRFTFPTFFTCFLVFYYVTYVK
Sequence (A0A894KE58 21-448): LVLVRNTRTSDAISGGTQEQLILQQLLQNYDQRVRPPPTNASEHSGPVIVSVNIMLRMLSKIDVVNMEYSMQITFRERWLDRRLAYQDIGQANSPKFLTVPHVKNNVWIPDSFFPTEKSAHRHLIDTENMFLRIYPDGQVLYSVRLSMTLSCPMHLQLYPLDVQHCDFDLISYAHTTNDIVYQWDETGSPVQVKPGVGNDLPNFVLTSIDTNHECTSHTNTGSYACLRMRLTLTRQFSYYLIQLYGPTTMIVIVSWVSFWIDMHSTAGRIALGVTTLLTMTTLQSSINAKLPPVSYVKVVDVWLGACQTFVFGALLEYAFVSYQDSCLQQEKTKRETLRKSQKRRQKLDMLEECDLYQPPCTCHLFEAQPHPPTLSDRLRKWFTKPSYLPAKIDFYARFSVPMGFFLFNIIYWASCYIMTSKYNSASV
Experiment: two-electrode voltage clamp, Xenopus oocytes

{"columns": ["molecule", "assayedTarget", "EC50 (µM)"],
 "data": [
  ["N[C@@H](CCC(=O)O)C(=O)O [glutamate]", "Pun-AVR-14B/GLC-2 (Parascaris univalens, UniProt A0A894K7G1+A0A894KE58)", 10.9]
]}

Just for reference, paper PMC9306661 is where these values come from.
